# System: Plasmodium falciparum
# measurement_description: Antimalarial activity against chloroquine-resistant Plasmodium falciparum Dd2
# Assay type: functional, organism-based
Would you mind telling me the reported pIC50 of each entry?
Worth noting: pIC50 values are minus log10 of concentrations stated in mol/L.

QUERY: Print Plasmodium falciparum pIC50 for `Clc1ccc2c(NCCCN(CCc3ccccc3)Cc3ncc[nH]3)ccnc2c1` .
RESULT: 6.82

QUERY: Print Plasmodium falciparum pIC50 for `CCCCN(CCCNc1ccnc2cc(Cl)ccc12)Cc1ccoc1` .
RESULT: 7.35

QUERY: Print Plasmodium falciparum pIC50 for `CCCCN(CCCNc1ccnc2cc(Cl)ccc12)Cc1ccsc1` .
RESULT: 7.35

QUERY: Print Plasmodium falciparum pIC50 for `CCCCN(CCCNc1ccnc2cc(Cl)ccc12)Cc1cc(Br)ccc1O` .
RESULT: 7.35

###

Would you mind telling me the reported IC50 of each entry?
# Tested on: Plasmodium falciparum
# measurement_description: Antimalarial activity against Plasmodium falciparum 3D7
# Type: functional, organism-based
Just the number please, in nM, no unit attached.

QUERY: Tell me its IC50 given `CCCCN(CCCNc1ccnc2cc(Cl)ccc12)Cc1ccoc1` as the entry.
RESULT: 50

QUERY: Tell me its IC50 given `CCCCN(CCCNc1ccnc2cc(Cl)ccc12)Cc1cc(Br)ccc1O` as the entry.
RESULT: 45

QUERY: Tell me its IC50 given `CCCCN(CCCNc1ccnc2cc(Cl)ccc12)Cc1ccsc1` as the entry.
RESULT: 50

QUERY: Tell me its IC50 given `Clc1ccc2c(NCCCN(CCc3ccccc3)Cc3ncc[nH]3)ccnc2c1` as the entry.
RESULT: 50

###

# Tested on: Plasmodium falciparum
# measurement_description: Antimalarial activity against chloroquine-resistant Plasmodium falciparum W2
# Type: functional, organism-based
pIC50: −log10 of the molar value.
The threshold is inclusive: pIC50 of exactly 7 counts as T; values below receive F.

QUERY: Could you please find out whether `Cc1ccc2c(c1)/C(=N\NC(N)=S)C(=O)N2CCNc1ccnc2cc(Cl)ccc12` has pIC50 that meets 7 or exceeds it?
RESULT: T

QUERY: Could you please find out whether `CC(C)(C)C(=O)CN(CCCNc1ccnc2cc(Cl)ccc12)C(=O)c1ccncc1` has pIC50 that meets 7 or exceeds it?
RESULT: F

QUERY: Could you please find out whether `O=C(CN(CCCNc1ccnc2cc(Cl)ccc12)C(=O)c1cnccn1)C1CCCCC1` has pIC50 that meets 7 or exceeds it?
RESULT: F

QUERY: Could you please find out whether `O=C(CN(CCNc1ccnc2cc(Cl)ccc12)C(=O)c1cnccn1)C1CCCCC1` has pIC50 that meets 7 or exceeds it?
RESULT: F

QUERY: Could you please find out whether `CCCCN(CCCNc1ccnc2cc(Cl)ccc12)Cc1cc(Br)ccc1O` has pIC50 that meets 7 or exceeds it?
RESULT: T

QUERY: Could you please find out whether `O=C(CN(CCCNc1ccnc2cc(Cl)ccc12)C(=O)c1ccncc1)C1CCCCC1` has pIC50 that meets 7 or exceeds it?
RESULT: F

QUERY: Could you please find out whether CCCCNC(=O)C[C@H](O)[C@H](CC(C)C)NC(=O)[C@@H](NC(=O)Cc1ccc(CC(=O)N[C@H](C(=O)N[C@H](CCCCN)C(=O)NCCCC(C)Nc2cc(OC)cc3cccnc23)C(C)C)cc1)[C@H](C)CC (stereo partly drawn) has pIC50 that meets 7 or exceeds it?
RESULT: F
